assay: APR_HepG2_CellCycleArrest_72hr: Apredica 72-hour HepG2 Assay for Cell Cycle Arrest (AID 2282914); details: high-content imaging, actives raise or lower the signal
Calls of active or inactive are those of the source. Rule for the calls: active = hit-call score of the fitted dose curve at least 0.9, where 1 is the maximum; inactive = score below 0.9.
Reply using exactly one outcome from 1 (yes) = active, 0 (no) = inactive

Assay outcome for CCOP(=S)(OCC)SCn1c(=O)oc2cc(Cl)ccc21 : what was it? 1 (yes)

Returns: the outcome recorded for Cc1cc(Cl)ccc1OCC(=O)O in this assay. 0 (no)

Returns: the outcome recorded for CCOC(=O)CC(SP(=S)(OC)OC)C(=O)OCC (stereo not drawn) in this assay. 0 (no)

###

Assay: CCTE_Shafer_MEA_dev_spike_duration_mean: CCTE's Neural Network Formation Assay for Mean Spike Duration, Shafer Lab (AID 2284051);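 note: mean network spike duration pooled as area under curve over DIV 5 to 12 recordings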
Description: CCTE_Shafer_MEA_dev assay is conducted using Axion Biosystems 48 well microelectrode array (MEA) plates and Maestro recording system. Each well of the MEA plate contains a grid of 16 microelectrodes embedded in the culture surface. Electrically active cells, such as neurons, can be cultured over the electrodes, and electrical activity in these cells can be recorded extracellularly. […]
Activity calls are given as the source filed them. Rule for the calls: active = hit-call score of the fitted dose curve at least 0.9, where 1 is the maximum; inactive = score below 0.9.
Lab note: assign the record to one of class 1 (active), class 0 (inactive)

Which outcome was assigned to CCNc1nc(Cl)nc(NC(C)C)n1 in this test? class 0

Outcome? C=CC1(C)OC(=O)N(c2cc(Cl)cc(Cl)c2)C1=O (stereo not drawn) class 0

Write down the call the test reported for this compound. Item: CN(C)C(=S)SSC(=S)N(C)C class 1

GET /call?item= Cc1c(F)c(F)c(COC(=O)C2C(/C=C(\Cl)C(F)(F)F)C2(C)C)c(F)c1F (stereo not drawn) returns the recorded outcome of this test. class 1

I'd appreciate the recorded outcome for COP(=S)(OC)Oc1nc(Cl)c(Cl)cc1Cl from this test. class 0

Assay result, entry CCOc1cc(Oc2ccc(C(F)(F)F)cc2Cl)ccc1[N+](=O)[O-] — outcome? class 1

Query: recorded result category for N#Cc1nn(-c2c(Cl)cc(C(F)(F)F)cc2Cl)c(N)c1S(=O)C(F)(F)F (stereo not drawn) in this test class 0

Which result was noted for this compound in the test: COc1ccc(C(c2ccc(OC)cc2)C(Cl)(Cl)Cl)cc1 class 1

###

read-out: CYP2C8 (gene 1558); experiment: LTEA_HepaRG_CYP2C8: Life Technologies and Expression Analysis (LTEA) Assay for CYP2C8 using HepaRG (AID 2283483); settings: mRNA level, 48 h; actives raise or lower the signal
Calls of active or inactive are those of the source. The calls were made as follows: active = hit-call score of the fitted dose curve at least 0.9, where 1 is the maximum; inactive = score below 0.9.
Respond with a class label; see true (active), false (inactive)

For COC(=O)N(OC)c1ccccc1COc1ccn(-c2ccc(Cl)cc2)n1 , which call appears in the assay record? true

Dear all, I need the recorded test outcome for CCOC(=O)CC(SP(=S)(OC)OC)C(=O)OCC (stereo unspecified) , thank you. false

Hello, I am checking results. What call was entered for COc1ccc(C(c2ccc(OC)cc2)C(Cl)(Cl)Cl)cc1 ? false

# outcome recorded in this test, key = CC(C)Oc1cc(-n2nc(C(C)(C)C)oc2=O)c(Cl)cc1Cl true

Would you mind telling me which call this test gave CCOC(=O)C(Cl)Cc1cc(-n2nc(C)n(C(F)F)c2=O)c(F)cc1Cl (stereo unspecified) ? true

Just curious, what result did CON(C)C(=O)Nc1ccc(Cl)c(Cl)c1 get here? false

For this compound, state the assay outcome: CCCN(CCC)c1c([N+](=O)[O-])cc(S(N)(=O)=O)cc1[N+](=O)[O-] false

Dear all, I need the recorded test outcome for O=C(O)c1nc(Cl)ccc1Cl , thank you. false

Query: recorded result category for CN(C)C(=S)SSC(=S)N(C)C in this test false

Field: outcome | Entry: Cc1c(F)c(F)c(COC(=O)C2C(/C=C(\Cl)C(F)(F)F)C2(C)C)c(F)c1F (stereo unspecified) false

Recorded call for Oc1ccccc1-c1ccccc1 ? false

###

read-out: Signal transducer and activator of transcription 3 (Homo sapiens); assay: LTEA_HepaRG_STAT3: Life Technologies and Expression Analysis (LTEA) Assay for Signal transducer and activator of transcription (STAT3) using HepaRG (AID 2283529); conditions: mRNA level, 48 h; actives raise or lower the signal
The source made the active and inactive calls. How the source made its calls: active means hit-call score of the fitted dose curve at least 0.9, where 1 is the maximum; inactive means score below 0.9.
The reply should be one of these categories: TRUE = active, FALSE = inactive

Identify the outcome logged in this assay for the compound shown: CCOC(=O)CC(SP(=S)(OC)OC)C(=O)OCC (stereo not drawn) FALSE

How did this test come out for CC(Oc1ccc(Cl)cc1Cl)C(=O)O (stereo not drawn) ? FALSE

What classification did COP(=S)(OC)Oc1nc(Cl)c(Cl)cc1Cl end up with in this test? FALSE

What call does the record list for CC1=C(C(=O)Nc2ccccc2)SCCO1 ? FALSE

Outcome logged for O=C(O)c1nc(Cl)ccc1Cl in this assay: FALSE

Any idea what this test logged for CNC(=O)ON=CC(C)(C)SC ? FALSE

Recorded test call requested for COc1cnc(OC)n2nc(NS(=O)(=O)c3c(OCC(F)F)cccc3C(F)(F)F)nc12 FALSE

Recorded test outcome, item CCOC(=O)C(Cl)Cc1cc(-n2nc(C)n(C(F)F)c2=O)c(F)cc1Cl (stereo not drawn) FALSE

GET /call?item= O=C(Nc1ccccc1)Nc1ccnc(Cl)c1 returns the recorded outcome of this test. TRUE

Entry CC(C)Oc1cc(-n2nc(C(C)(C)C)oc2=O)c(Cl)cc1Cl : call = ? FALSE

Hello, I am checking results. What call was entered for CNC(=S)S ? FALSE

GET /call?item= COC(=O)C=C(C)OP(=O)(OC)OC returns the recorded outcome of this test. FALSE

Short answer needed: outcome of this test for Oc1ccccc1-c1ccccc1 ? FALSE

###

Read-out: UDP glucuronosyltransferase (UGT1A1), UGT1A1 (gene 54658)
Test: LTEA_HepaRG_UGT1A1: Life Technologies and Expression Analysis (LTEA) Assay for UDP glucuronosyltransferase (UGT1A1) using HepaRG (AID 2283538)
Conditions: mRNA level, 48 h; actives raise or lower the signal
Procedure: LTEA_HepaRG is a cell based, multiplexed-readout assay that uses HepaRG, a human liver cell line, with measurements taken at 48 hours after chemical dosing on a 96-well plate.LTEA_HepaRG_UGT1A1 is one of 102 assay component(s) measured in the LTEA HepaRG cell culture assay. It is a marker of Steatosis/NR mediated metabolism.Data from the assay component LTEA_HepaRG_UGT1A1 was analyzed into 1 endpoint. […]
The source made the active and inactive calls. The calls were made as follows: active = hit-call score of the fitted dose curve at least 0.9, where 1 is the maximum; inactive = score below 0.9.
Classes to choose from: active, inactive

Short answer needed: outcome of this test for O=C(O)c1nc(Cl)ccc1Cl ? inactive

Identify the outcome logged in this assay for the molecule shown: CNC(=O)ON=CC(C)(C)SC inactive

I'd appreciate the recorded outcome for C#CCOS(=O)OC1CCCCC1Oc1ccc(C(C)(C)C)cc1 (configuration not stated) from this test. active

Which outcome was entered for the molecule CCOC(=O)C(Cl)Cc1cc(-n2nc(C)n(C(F)F)c2=O)c(F)cc1Cl (configuration not stated) in this test? active

# lookup: test call for CN(C)C(=S)SSC(=S)N(C)C inactive

Hey, what did the test say about CCCCC(CC)COC(=O)c1ccccc1C(=O)OCC(CC)CCCC (configuration not stated) ? active

Which outcome was entered for the molecule COc1nc(NC(C)C)nc(NC(C)C)n1 in this test? active

###

read-out: growth arrest and DNA damage 45 (GADD45B), GADD45B (gene 4616); assay: LTEA_HepaRG_GADD45B: Life Technologies and Expression Analysis (LTEA) Assay for growth arrest and DNA damage 45 (GADD45B) using HepaRG (AID 2283461); settings: mRNA level, 48 h; actives raise or lower the signal
Active and inactive are the calls of the source. Rule for the calls: active = hit-call score of the fitted dose curve at least 0.9, where 1 is the maximum; inactive = score below 0.9.
Output constraint: value belongs to active, inactive

For O=C(O)c1nc(Cl)ccc1Cl , what call appears in the results of this test? inactive

Name the outcome recorded for CCCCNC(=O)OCC#CI in the assay. inactive

Look up the recorded call for Fc1ccc(Oc2ccnc3cc(Cl)cc(Cl)c23)cc1 in this test. inactive

Please share the test call associated with CC(C)C1(C)N=C(c2nc3ccccc3cc2C(=O)O)NC1=O (stereo unspecified) . inactive

Recorded call for CC(C)(C)c1ccc(CSc2cnn(C(C)(C)C)c(=O)c2Cl)cc1 ? inactive

What call does the record list for COc1nc(NC(C)C)nc(NC(C)C)n1 ? inactive

For O=C(Nc1ccccc1)Nc1ccnc(Cl)c1 , which call appears in the assay record? inactive

Please state the recorded outcome for this compound: COC(=O)c1ccccc1C(=O)OC inactive

State the result this test recorded for CCCCC(CC)COC(=O)c1ccccc1C(=O)OCC(CC)CCCC (stereo unspecified) . inactive

Could you kindly confirm the outcome this assay logged for Cc1ccc(-c2c(Cl)nc(C#N)n2S(=O)(=O)N(C)C)cc1 ? active

# fetch the recorded call for CC(Oc1ccc(Cl)cc1Cl)C(=O)O (stereo unspecified) here inactive

Hi team, can someone confirm the assay call for CCOC(=O)CC(SP(=S)(OC)OC)C(=O)OCC (stereo unspecified) ? inactive

For COP(N)(=O)SC (stereo unspecified) , which call appears in the assay record? inactive

Query: recorded result category for COc1cnc(OC)n2nc(NS(=O)(=O)c3c(OCC(F)F)cccc3C(F)(F)F)nc12 in this test inactive

Returns: the outcome recorded for COC(=O)N(OC)c1ccccc1COc1ccn(-c2ccc(Cl)cc2)n1 in this assay. inactive

What is the recorded call for this compound in the test? CCOC(=O)C(Cl)Cc1cc(-n2nc(C)n(C(F)F)c2=O)c(F)cc1Cl (stereo unspecified) inactive
